biological target: HLA-A*02 (human); assay: UV peptide-exchange ELISA, yield grade
peptide exchange yield values by entry
quantity_name: peptide exchange yield

- binder: "FLLATEVVTV [FLLATEVVTV (SEQ ID NO: 34)]"
  quantity_name: "peptide exchange yield"
  reading: "≥ 75%"
- binder: "KLEENGDLYL [KLEENGDLYL (SEQ ID NO: 3)]"
  quantity_name: "peptide exchange yield"
  reading: "≥ 75%"
- binder: "YLLQSVNQLLL [YLLQSVNQLLL (SEQ ID NO: 99)]"
  quantity_name: "peptide exchange yield"
  reading: "20 to 49%"
- binder: "KMPDVELFV [KMPDVELFV (SEQ ID NO: 117)]"
  quantity_name: "peptide exchange yield"
  reading: "50 to 75%"
- binder: "YLVSEIFKA [YLVSEIFKA (SEQ ID NO: 103)]"
  quantity_name: "peptide exchange yield"
  reading: "50 to 75%"
- binder: "FLQDLEQRL [FLQDLEQRL (SEQ ID NO: 90)]"
  quantity_name: "peptide exchange yield"
  reading: "50 to 75%"
- binder: "FINDSIVYL [FINDSIVYL (SEQ ID NO: 106)]"
  quantity_name: "peptide exchange yield"
  reading: "50 to 75%"
- binder: "HLLEGSVGV [HLLEGSVGV (SEQ ID NO: 39)]"
  quantity_name: "peptide exchange yield"
  reading: "50 to 75%"
- binder: "SLDPDTLPAV [SLDPDTLPAV (SEQ ID NO: 115)]"
  quantity_name: "peptide exchange yield"
  reading: "20 to 49%"
- binder: "ALFAPLVHL [ALFAPLVHL (SEQ ID NO: 60)]"
  quantity_name: "peptide exchange yield"
  reading: "50 to 75%"
- binder: "QLAPVFQRV [QLAPVFQRV (SEQ ID NO: 89)]"
  quantity_name: "peptide exchange yield"
  reading: "20 to 49%"
- binder: "RLMEENWNA [RLMEENWNA (SEQ ID NO: 27)]"
  quantity_name: "peptide exchange yield"
  reading: "50 to 75%"
- binder: "GQASYFYVA [GQASYFYVA (SEQ ID NO: 83)]"
  quantity_name: "peptide exchange yield"
  reading: "20 to 49%"
- binder: "FLGPRIIGL [FLGPRIIGL (SEQ ID NO: 38)]"
  quantity_name: "peptide exchange yield"
  reading: "50 to 75%"
- binder: "LLDSVSRL [LLDSVSRL (SEQ ID NO: 42)]"
  quantity_name: "peptide exchange yield"
  reading: "< 20%"
- binder: "QMFQYFITV [QMFQYFITV (SEQ ID NO: 126)]"
  quantity_name: "peptide exchange yield"
  reading: "≥ 75%"
